Tested on: HT29 colon
PROCEDURE TEXT: NCI-60 one-dose screen, 48 h (100 = growth as untreated, 0 = no growth, -100 = all killed)
MEASUREMENT CONTEXT: 10 µM
About 83,000 compounds went through this panel and 20% of them were active in at least one assay; those are over-represented in the sample as a whole.
Entries annotated with measured growth
MEASURED ATTRIBUTE: growth (%)

• Cc1ccc(/C=C/C(=O)c2ccc(S(=O)(=O)NCCNc3nc(Nc4ccc(F)cc4)nc(N(C)C)n3)cc2)cc1 = -55.6
• COc1ccc(-c2cc(C(=O)N=Nc3c(O)[nH]c4ccc(F)cc34)c3ccccc3n2)cc1 = 61.9
• CCOc1ccc(/C=N/NC(=O)Cn2nc(Cc3ccc([N+](=O)[O-])cc3)c3onc(C)c3c2=O)cc1 = 34.6
• O=C1CCC(N2Cc3cc(NC(=O)COc4ccccc4)ccc3C2=O)C(=O)N1 (stereo not drawn) = 79.5
• CCOC(=O)c1c(CSc2ccccc2)n(C)c2cc(CN(C)C)c(O)c(CN(C)C)c12 = 19.8
• CC(C)C(=O)Nc1ccc(C(=O)NC(=S)Nc2ccc(C(=O)O)cc2)cc1 = 111
• C#CCNC(=O)CCC(=O)OC[C@]12CC[C@@H](C(=C)C)[C@@H]1C1CC[C@@H]3[C@@]4(C)CCCNC(C)(C)[C@@H]4CC[C@@]3(C)[C@]1(C)CC2 (stereo partly drawn) = -68.1
• CCCn1c(=O)c2[nH]c(-c3ccc(OCc4nc5ccc(C)cc5[nH]4)cc3)nc2n(CCC)c1=O = 38.7
